test: Log P by HPLC on reversed phase columns (EEC directive 79/831 Annex V.A8); assay type: physicochemical
Please go through the items and note down their LogP.

OC(Cc1cccc(F)c1F)(Cn1cnnn1)C1(Cl)CC1 (centres unmarked) [Ia-06] ... 2.46^[a]

Would you be so kind as to report LogP for each listed record?
1. COc1cccc(CC(O)(Cn2cnnn2)C2(Cl)CC2)c1 (centres unmarked) [Ia-60]
2. Cc1cccc(CC(O)(Cn2cnnn2)C2(F)CC2)c1 (centres unmarked) [Ia-28]

Result:
1: 2.42^[a]; 2: 2.42^[a]

----------
test: Log P by HPLC on reversed phase columns (EEC directive 79/831 Annex V.A8); type: physicochemical
Measured Attribute: LogP

The examples below pair each entry with its known result.
CC(c1cccc(F)c1F)C(O)(Cn1cnnn1)C1(Cl)CC1 (centres unmarked) [Ia-25] ... 2.96^[a]
COc1c(F)ccc(CC(O)(Cn2cnnn2)C2(Cl)CC2)c1F (centres unmarked) [Ia-50] ... 2.62^[a]
COc1ccc(CC(O)(Cn2cnnn2)C2(F)CC2)cc1 (centres unmarked) [Ia-27] ... 2.08^[a]
O=C(Cn1cnnn1)C1(F)CC1 [XVIa-03] ... 0.59^[a]
OC(Cc1ccc(F)c(F)c1F)(Cn1ncnn1)C1(Cl)CC1 (centres unmarked) [Ib-10] ... 3.11^[a]
COc1cc(F)c(CC(O)(Cn2ncnn2)C2(Cl)CC2)c(F)c1 (centres unmarked) [Ib-15] ... 3.11^[a]

For each of the items listed, what is its LogP?
1. OC(Cc1ccncc1Cl)(Cn1cnnn1)C1(Cl)CC1 (centres unmarked) [Ia-73]
2. OC(Cc1cc(F)cc(F)c1F)(Cn1cnnn1)C1(Cl)CC1 (centres unmarked) [Ia-43]
3. OC(Cc1ccccc1C(F)(F)F)(Cn1cnnn1)C1(Cl)CC1 (centres unmarked) [Ia-07]
4. OC(Cc1c(F)cc(F)cc1F)(Cn1ncnn1)C1(Cl)CC1 (centres unmarked) [Ib-07]

Result:
1.65^[a]
2.66^[a]
3.02^[a]
3.09^[a]

Query: # lookup: LogP of CC1(C(=O)Cn2cnnn2)CC1 [XVIa-02]
Result: 0.79^[a]

----------
test: Log P by HPLC on reversed phase columns (EEC directive 79/831 Annex V.A8); type: physicochemical
Provide the reported LogP of each item.

Example cases with answers are listed next.
OC(Cc1ccc(Cl)cc1F)(Cn1cnnn1)C1(Cl)CC1 (stereo not shown) [Ia-40] ... 2.90^[a]
COc1ccccc1CC(O)(Cn1cnnn1)C1(Cl)CC1 (stereo not shown) [Ia-14] ... 2.73^[a]

I need LogP for every entry listed below, if you could help.
1. Cc1ccc(CC(O)(Cn2cnnn2)C2(Cl)CC2)cc1 (stereo not shown) [Ia-57]
2. Cc1ccccc1CC(O)(Cn1cnnn1)C1(C)CC1 (stereo not shown) [Ia-12]
3. OC(Cc1cncc(F)c1)(Cn1ncnn1)C1(Cl)CC1 (stereo not shown) [Ib-23]
4. OC(Cc1cccc(F)c1)(Cn1cnnn1)C1(Cl)CC1 (stereo not shown) [Ia-69]
5. CC=C(c1cccc(F)c1F)C(O)(Cn1cnnn1)C1(Cl)CC1 (racemic) [Ia-en-07]

Result:
["2.78^[a]", "2.75^[a]", "1.76^[a]", "2.54^[a]", "2.75^[a]"]

// each listed molecule needs a value for LogP
1. OC(Cc1cccc(Cl)c1F)(Cn1ncnn1)C1(Cl)CC1 (stereo not shown) [Ib-06]
2. OC(Cc1cc(F)cc(F)c1F)(Cn1ncnn1)C1(Cl)CC1 (stereo not shown) [Ib-11]

Result:
1: 3.19^[a]; 2: 3.06^[a]

Query: What does the data say about its LogP? Entry: COc1cc(F)c(CC(O)(Cn2cnnn2)C2(Cl)CC2)c(F)c1 (stereo not shown) [Ia-49]
Result: 2.69^[a]

----------
Please go through the items and note down their LogP.
test: Log P by HPLC on reversed phase columns (EEC directive 79/831 Annex V.A8); type: physicochemical

OC(Cc1cccc(Cl)c1Cl)(Cn1cnnn1)C1(Cl)CC1 (centres unmarked) [Ia-15] ... 3.19^[a]

Below are some compounds; for each one, tell me its LogP.
1. COc1c(F)ccc(CC(O)(Cn2ncnn2)C2(Cl)CC2)c1F (centres unmarked) [Ib-14]
2. OC(Cc1c(F)cccc1F)(Cn1cnnn1)C1(Cl)CC1 (centres unmarked) [Ia-13]
3. OC(Cc1ccc(F)c(F)c1F)(Cn1cnnn1)C1(Cl)CC1 (centres unmarked) [Ia-44]
4. OC(Cc1ccc(F)cc1F)(Cn1cnnn1)C1(Cl)CC1 (centres unmarked) [Ia-53]

Result:
1: 3.00^[a]; 2: 2.52^[a]; 3: 2.71^[a]; 4: 2.57^[a]

Working through the 3 compounds below one at a time, give LogP for each.
1. Cc1ccc(F)c(CC(O)(Cn2cnnn2)C2(Cl)CC2)c1Cl (centres unmarked) [Ia-45]
2. CC1(C(O)(Cc2ccccc2F)Cn2cnnn2)CC1 (centres unmarked) [Ia-68]
3. Cc1ccc(CC(O)(Cn2cnnn2)C2(F)CC2)cc1 (centres unmarked) [Ia-33]

Result:
["3.23^[a]", "2.45^[a]", "2.44^[a]"]

All values here come from patent US11213031B2.
